biological target: human Cav2.2 (Homo sapiens); assay: Assessment of calcium channel activity using FLIPR (Ca2+ influx in IMR32 cells); format: cell-based
Assay endpoint: IC50

Sample records with IC50:
INSERT INTO results (molecule, target_or_system, result) VALUES
  ('CCC[C@H](NC)C(=O)N[C@@H]1CC[C@H]2CN(Cc3ccccc3)C[C@H]21', 'human Cav2.2 (Homo sapiens)', '> 30 µM'),
  ('CC(C)(C)[C@H](N)C(=O)N[C@@H]1CC[C@H]2CN(Cc3ccccc3)C[C@H]21', 'human Cav2.2 (Homo sapiens)', '> 30 µM'),
  ('CCC[C@H](NC)C(=O)N[C@@H]1CC[C@H]2CN(Cc3ccc(F)cc3)C[C@H]21', 'human Cav2.2 (Homo sapiens)', '> 9 µM'),
  ('CCC[C@H](NC)C(=O)N[C@H]1CC[C@@H]2CN(S(=O)(=O)c3ccc(OC(F)(F)F)cc3)C[C@@H]21', 'human Cav2.2 (Homo sapiens)', '3.16 µM'),
  ('O=C(N[C@H]1CC[C@@H]2CN(c3cccc(C(F)(F)F)n3)C[C@@H]21)c1ccc2ccccc2n1', 'human Cav2.2 (Homo sapiens)', '0.98 µM');

Looking up `CC[C@H](C)[C@H](NC)C(=O)N[C@H]1CC[C@@H]2CN(Cc3ccccc3)C[C@@H]21` , I found its IC50 recorded as > 30 µM

Looking up `CN[C@@H](CC(C)C)C(=O)N[C@H]1CC[C@@H]2CN(c3ccccc3Cl)C[C@@H]21` , I found its IC50 recorded as 2.39 µM

Looking up `O=C(N[C@H]1CC[C@@H]2CN(c3ncccc3C(F)(F)F)C[C@@H]21)[C@@H]1C[C@@H](F)CN1` , I found its IC50 recorded as 7.03 µM

Looking up O=C(CC(c1ccccc1)c1ccccc1)N[C@H]1CC[C@H]2CN(Cc3cccc(C(F)(F)F)c3)C[C@H]21 (relative stereo) , I found its IC50 recorded as 0.66 µM

Looking up `CCC[C@H](NC)C(=O)N[C@H]1CC[C@@H]2CN(c3ccc(C(F)(F)F)cc3)C[C@@H]21` , I found its IC50 recorded as 13 µM

Looking up `CN[C@@H](CC(C)C)C(=O)N[C@H]1CC[C@@H]2CN(c3ccccc3C(F)F)C[C@@H]21` , I found its IC50 recorded as 2.9 µM

Looking up `CN[C@@H](CC(C)C)C(=O)N[C@H]1CC[C@@H]2CN(c3ccc(C(F)(F)F)cc3)C[C@@H]21` , I found its IC50 recorded as 1.65 µM

----------
biological target: human Cav2.2 (Homo sapiens, UniProt Q00975); experiment: Assessment of calcium channel activity using FLIPR (Ca2+ influx in IMR32 cells); format: cell-based; conditions: read-out: IC50 (μM) or percent inhibition (* indicates 3 minute incubation, otherwise 60 minute); IC50; 60 minute pre-incubation with compound; IMR32 cells, 80 mM KCl depolarization
Sequence (Q00975 whole entry): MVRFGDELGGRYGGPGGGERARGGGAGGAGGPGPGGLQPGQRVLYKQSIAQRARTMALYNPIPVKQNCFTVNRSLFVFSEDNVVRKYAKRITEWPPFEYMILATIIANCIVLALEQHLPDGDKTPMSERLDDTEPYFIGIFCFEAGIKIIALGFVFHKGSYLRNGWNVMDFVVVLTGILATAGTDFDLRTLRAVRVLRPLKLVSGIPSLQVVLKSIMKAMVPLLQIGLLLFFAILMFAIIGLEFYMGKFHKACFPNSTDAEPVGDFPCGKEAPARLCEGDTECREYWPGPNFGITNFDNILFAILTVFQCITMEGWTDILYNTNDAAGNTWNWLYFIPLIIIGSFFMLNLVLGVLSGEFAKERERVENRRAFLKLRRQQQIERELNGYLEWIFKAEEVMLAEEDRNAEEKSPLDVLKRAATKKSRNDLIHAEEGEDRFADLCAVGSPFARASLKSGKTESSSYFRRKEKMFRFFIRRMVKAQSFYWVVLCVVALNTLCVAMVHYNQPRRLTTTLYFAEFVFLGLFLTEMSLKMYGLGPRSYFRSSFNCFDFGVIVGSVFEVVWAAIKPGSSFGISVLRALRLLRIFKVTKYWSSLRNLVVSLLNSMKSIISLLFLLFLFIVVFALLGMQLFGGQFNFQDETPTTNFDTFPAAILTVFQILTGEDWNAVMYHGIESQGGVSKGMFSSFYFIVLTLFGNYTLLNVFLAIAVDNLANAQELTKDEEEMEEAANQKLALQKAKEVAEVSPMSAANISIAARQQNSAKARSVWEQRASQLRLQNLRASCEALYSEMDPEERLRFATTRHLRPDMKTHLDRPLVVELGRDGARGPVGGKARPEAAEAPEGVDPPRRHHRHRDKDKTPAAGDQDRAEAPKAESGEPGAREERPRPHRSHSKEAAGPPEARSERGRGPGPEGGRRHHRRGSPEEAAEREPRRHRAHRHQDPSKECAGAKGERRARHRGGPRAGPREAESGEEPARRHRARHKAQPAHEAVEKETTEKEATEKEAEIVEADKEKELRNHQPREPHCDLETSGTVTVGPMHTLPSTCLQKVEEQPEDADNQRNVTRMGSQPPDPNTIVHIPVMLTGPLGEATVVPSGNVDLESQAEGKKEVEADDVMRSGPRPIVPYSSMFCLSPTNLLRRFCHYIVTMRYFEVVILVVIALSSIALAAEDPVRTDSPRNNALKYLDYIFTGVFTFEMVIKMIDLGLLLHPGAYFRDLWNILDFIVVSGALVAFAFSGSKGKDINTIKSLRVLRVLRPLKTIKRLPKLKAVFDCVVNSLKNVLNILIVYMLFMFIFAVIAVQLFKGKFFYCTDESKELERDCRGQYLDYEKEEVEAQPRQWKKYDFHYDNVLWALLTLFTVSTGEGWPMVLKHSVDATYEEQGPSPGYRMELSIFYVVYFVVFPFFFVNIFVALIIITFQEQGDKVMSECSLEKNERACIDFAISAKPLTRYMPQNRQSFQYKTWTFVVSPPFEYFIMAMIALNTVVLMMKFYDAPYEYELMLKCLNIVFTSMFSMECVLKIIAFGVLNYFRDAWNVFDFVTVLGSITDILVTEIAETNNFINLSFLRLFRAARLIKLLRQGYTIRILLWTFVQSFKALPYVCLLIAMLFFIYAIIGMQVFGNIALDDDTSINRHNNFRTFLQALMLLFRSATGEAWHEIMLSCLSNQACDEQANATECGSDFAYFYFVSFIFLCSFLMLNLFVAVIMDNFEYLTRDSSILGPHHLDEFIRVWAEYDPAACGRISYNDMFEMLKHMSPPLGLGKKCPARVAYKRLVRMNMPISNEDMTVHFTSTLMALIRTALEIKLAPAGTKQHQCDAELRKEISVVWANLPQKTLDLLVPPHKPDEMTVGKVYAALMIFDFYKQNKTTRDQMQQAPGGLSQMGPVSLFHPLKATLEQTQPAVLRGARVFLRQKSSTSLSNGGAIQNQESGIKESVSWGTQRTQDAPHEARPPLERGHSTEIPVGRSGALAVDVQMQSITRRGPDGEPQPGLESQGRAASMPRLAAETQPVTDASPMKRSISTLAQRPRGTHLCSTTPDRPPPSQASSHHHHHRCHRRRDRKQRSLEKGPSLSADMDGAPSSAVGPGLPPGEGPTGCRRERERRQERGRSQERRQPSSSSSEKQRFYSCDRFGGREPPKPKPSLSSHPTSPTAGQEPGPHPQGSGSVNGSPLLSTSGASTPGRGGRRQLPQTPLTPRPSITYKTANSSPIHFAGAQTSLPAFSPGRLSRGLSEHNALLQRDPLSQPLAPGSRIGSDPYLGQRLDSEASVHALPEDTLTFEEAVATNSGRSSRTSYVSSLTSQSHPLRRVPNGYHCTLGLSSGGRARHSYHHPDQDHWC
Sequence (P54289 25-956 partner limits assumed): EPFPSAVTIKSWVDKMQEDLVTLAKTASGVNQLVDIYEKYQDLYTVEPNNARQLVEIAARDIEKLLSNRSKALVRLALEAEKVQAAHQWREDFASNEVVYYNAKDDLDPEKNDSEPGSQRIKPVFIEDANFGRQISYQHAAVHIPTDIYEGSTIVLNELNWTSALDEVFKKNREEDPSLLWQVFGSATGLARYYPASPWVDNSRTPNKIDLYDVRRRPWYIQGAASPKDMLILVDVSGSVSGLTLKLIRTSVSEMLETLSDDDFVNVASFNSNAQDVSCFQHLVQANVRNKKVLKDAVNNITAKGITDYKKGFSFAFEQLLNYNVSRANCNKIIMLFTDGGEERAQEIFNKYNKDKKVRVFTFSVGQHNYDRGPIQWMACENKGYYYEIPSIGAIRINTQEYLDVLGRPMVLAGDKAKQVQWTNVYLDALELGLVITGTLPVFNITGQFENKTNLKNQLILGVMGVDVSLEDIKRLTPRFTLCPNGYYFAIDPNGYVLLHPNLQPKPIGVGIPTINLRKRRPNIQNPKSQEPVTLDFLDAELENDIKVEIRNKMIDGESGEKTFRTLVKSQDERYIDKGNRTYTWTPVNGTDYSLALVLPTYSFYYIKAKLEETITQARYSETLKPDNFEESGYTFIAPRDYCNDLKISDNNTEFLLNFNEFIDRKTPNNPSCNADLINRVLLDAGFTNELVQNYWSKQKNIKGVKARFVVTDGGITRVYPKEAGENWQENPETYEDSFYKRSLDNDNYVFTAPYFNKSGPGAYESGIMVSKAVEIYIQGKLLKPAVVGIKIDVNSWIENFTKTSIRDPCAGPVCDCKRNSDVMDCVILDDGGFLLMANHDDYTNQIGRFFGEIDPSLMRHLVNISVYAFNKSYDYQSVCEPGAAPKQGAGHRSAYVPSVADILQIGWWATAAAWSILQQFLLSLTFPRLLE
Sequence (P54289 957-1103 partner limits assumed): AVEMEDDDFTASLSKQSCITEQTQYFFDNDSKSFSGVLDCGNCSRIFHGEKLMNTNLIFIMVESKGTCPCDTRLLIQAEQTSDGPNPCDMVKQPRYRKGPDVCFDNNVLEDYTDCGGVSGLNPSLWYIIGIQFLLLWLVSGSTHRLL
Sequence (P54284 whole entry partner): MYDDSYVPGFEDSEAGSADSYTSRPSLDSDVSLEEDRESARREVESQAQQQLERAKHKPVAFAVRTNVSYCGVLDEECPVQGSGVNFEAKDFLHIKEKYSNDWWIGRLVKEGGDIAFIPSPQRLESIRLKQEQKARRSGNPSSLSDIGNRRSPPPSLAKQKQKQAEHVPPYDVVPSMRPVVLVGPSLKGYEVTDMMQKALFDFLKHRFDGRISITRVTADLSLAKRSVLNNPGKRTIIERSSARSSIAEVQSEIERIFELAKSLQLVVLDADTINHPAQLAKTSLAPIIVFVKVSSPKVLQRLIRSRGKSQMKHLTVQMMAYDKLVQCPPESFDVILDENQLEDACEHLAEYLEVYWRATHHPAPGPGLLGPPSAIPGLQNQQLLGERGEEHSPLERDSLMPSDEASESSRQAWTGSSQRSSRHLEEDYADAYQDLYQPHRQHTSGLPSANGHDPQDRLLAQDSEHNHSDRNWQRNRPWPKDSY
Assay endpoint: log10(IC50) (log10 of the value in µM)
Each number you see is log10 of IC50, and the unit inside the log is µM.

Sample records with log10(IC50):
INSERT INTO measurements (compound, result) VALUES
  ('Cc1ccccc1CN1C[C@H]2CC[C@H](NC(=O)C(c3ccccc3)C(C)C)[C@H]2C1 (stereo partly drawn)', 0.31),
  ('CN[C@H](CC(C)C)C(=O)N[C@H]1CC[C@H]2CN(Cc3cccc(C(F)(F)F)c3)C[C@H]21 (relative stereo)', 0.58),
  ('O=C(N[C@H]1CC[C@H]2CN(Cc3cccnc3)C[C@H]21)C(C1CCCCC1)C1CCCCC1', 0.51),
  ('O=S(=O)(c1cccc(C(F)(F)F)c1)N1C[C@@H]2CC[C@@H](NC(c3ccccc3)c3ccccc3)[C@@H]2C1', 0.54),
  ('CC(C)(C)[C@H](NS(C)(=O)=O)C(=O)N[C@H]1CC[C@@H]2CN(Cc3ccc(C(F)(F)F)cc3)C[C@@H]21', 1.11),
  ('CC(C)C(C(=O)N[C@H]1CC[C@@H]2CN(CCCCCC(c3ccc(F)cc3)c3ccc(F)cc3)C[C@@H]21)c1ccccc1 (stereo partly drawn)', 0.06);

Summary line: `O=S(=O)(N[C@H]1CC[C@H]2CN(CCCCO)C[C@H]21)c1cccc(C(F)(F)F)c1` , human Cav2.2 (Homo sapiens, UniProt Q00975), reported log10(IC50) = 1.34

Summary line: `CC(C)C[C@H](NC(=O)NC1CCCC1)C(=O)N[C@@H]1CC[C@H]2CN(Cc3cccc(C(F)(F)F)c3)C[C@H]21` , human Cav2.2 (Homo sapiens, UniProt Q00975), reported log10(IC50) = -0.03

Summary line: `CC(C)(C)C[C@H](NCC1CC1)C(=O)N[C@H]1CC[C@@H]2CN(c3cccc(C(F)(F)F)n3)C[C@@H]21` , human Cav2.2 (Homo sapiens, UniProt Q00975), reported log10(IC50) = -0.59

Summary line: O=C(CC(c1ccc(F)cc1)c1ccc(F)cc1)N[C@H]1CC[C@H]2CN(Cc3cccc(C(F)(F)F)c3)C[C@H]21 (relative stereo) , human Cav2.2 (Homo sapiens, UniProt Q00975), reported log10(IC50) = -0.16

Summary line: `CC(C)C[C@@H](C(=O)N[C@@H]1CC[C@H]2CN(Cc3cccc(C(F)(F)F)c3)C[C@H]21)N(C)C(=O)OC(C)(C)C` , human Cav2.2 (Homo sapiens, UniProt Q00975), reported log10(IC50) = -0.16

Summary line: `CCC[C@H](NC)C(=O)N[C@H]1CC[C@@H]2CN(S(=O)(=O)c3cccs3)C[C@@H]21` , human Cav2.2 (Homo sapiens, UniProt Q00975), reported log10(IC50) = 0.99

----------
biological target: UniProt:Q00975; experiment: Assessment of calcium channel activity using FLIPR (Ca2+ influx in IMR32 cells); assay type: cell-based
Assay endpoint: IC50

INSERT INTO assay_data (compound_structure_string, result) VALUES
  ('CN[C@@H](CC(C)(C)C)C(=O)N[C@H]1CC[C@@H]2CN(c3ccc(C(F)(F)F)cn3)C[C@@H]21', '1880 nM'),
  ('CN[C@@H](CC(C)C)C(=O)N[C@H]1CC[C@@H]2CN(c3cccnc3C(F)(F)F)C[C@@H]21', '6930 nM'),
  ('O=S(=O)(c1ccc(C(F)(F)F)cc1)N1C[C@H]2CC[C@H](NCc3cc4cc(F)ccc4[nH]3)[C@H]2C1', '820 nM'),
  ('CN[C@@H](CC(C)C)C(=O)N[C@H]1CC[C@@H]2CN(c3cccc(C(F)F)c3)C[C@@H]21', '1080 nM'),
  ('CN[C@@H](CC(C)C)C(=O)N[C@H]1CC[C@@H]2CN(c3cccc(C(F)(F)F)c3F)C[C@@H]21', '920 nM');

Could you now consider this next compound?
Looking up `CN[C@@H](C)C(=O)N[C@H]1CC[C@@H]2CN(c3ccc(C(F)(F)F)cc3)C[C@@H]21` , I found its IC50 recorded as > 9500 nM

----------
Each entry below carries its recorded IC50.
target: human Cav2.2 (Homo sapiens); assay: Assessment of calcium channel activity using FLIPR (Ca2+ influx in IMR32 cells); format: cell-based

Sample records with IC50:
INSERT INTO assay_data (compound_structure_string, assay_endpoint, result) VALUES
  ('CN[C@@H](CC(C)(C)C)C(=O)N[C@H]1CC[C@@H]2CN(Cc3ccccc3)C[C@@H]21', 'IC50', '> 30 µM'),
  ('CN[C@@H](CO)C(=O)N[C@H]1CC[C@@H]2CN(c3ccc(C(F)(F)F)cc3)C[C@@H]21', 'IC50', '> 3 µM');

Looking up `CC(C)CC(=O)N[C@@H]1CC[C@H]2CN(Cc3ccccc3)C[C@H]21` , I found its IC50 recorded as > 30 µM

Looking up `CCC[C@H](NC)C(=O)N[C@H]1CC[C@H]2CN(Cc3ccccc3)C[C@H]21` , I found its IC50 recorded as > 30 µM

----------
biological target: human Cav2.2 (Homo sapiens, UniProt Q00975); test: Assessment of calcium channel activity using FLIPR (Ca2+ influx in IMR32 cells); assay type: cell-based
Assay endpoint: pIC50
Field pIC50 (float): negative decimal logarithm of the concentration in molar.

Sample records with pIC50:
INSERT INTO measurements (compound_structure_string, assay_endpoint, result) VALUES
  ('N[C@H]1CC[C@@H]2CN(c3ccc(C(F)(F)F)cc3)C[C@@H]21', 'pIC50', 5.19),
  ('FC(F)(F)c1cccc(N2C[C@H]3CC[C@H](NCc4c[nH]nc4-c4ccc(Cl)cc4)[C@H]3C2)n1', 'pIC50', 5.86);

Could you now consider this next molecule?
Looking up `CN[C@@H](CC(C)C)C(=O)N[C@@H]1CC[C@H]2CN(c3ccc(C(F)(F)F)cn3)C[C@H]21` , I found its pIC50 recorded as 5.53
